Target: UniProt:P31213
Sequence (P31213 whole entry): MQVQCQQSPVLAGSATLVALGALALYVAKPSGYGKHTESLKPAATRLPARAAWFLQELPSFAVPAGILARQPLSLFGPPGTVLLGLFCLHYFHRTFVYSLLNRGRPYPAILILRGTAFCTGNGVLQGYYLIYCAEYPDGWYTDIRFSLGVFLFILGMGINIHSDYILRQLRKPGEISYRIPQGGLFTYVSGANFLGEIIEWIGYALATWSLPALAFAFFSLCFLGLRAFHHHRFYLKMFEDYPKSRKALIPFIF
Experiment: In vitro inhibition of human steroid 5-alpha-reductase type 2 in SW-13-transfected cells
measured.metric: IC50

Q. Item under review: CC(C)CCN(C=O)[C@H]1CCC2C3CC[C@H]4N(C)C(=O)CC[C@]4(C)C3CC[C@@]21C (stereo partly specified) . Reported IC50?
A. > 100 nM

***
Q. Item under review: CC(C)C(=O)N(c1ccc([N+](=O)[O-])c(C(F)(F)F)c1)[C@H]1CCC2C3CC[C@H]4N(C)C(=O)CC[C@]4(C)C3CC[C@@]21C (stereo partly specified) . Reported IC50?
A. > 1000 nM

Q. Please give the result for CCCN(C=O)[C@H]1CCC2C3CC[C@H]4N(C)C(=O)CC[C@]4(C)C3CC[C@@]21C (stereo partly specified) too.
A. > 100 nM

Q. Please give the result for CC(C)C(=O)N(c1ccccc1)[C@H]1CCC2C3CC[C@H]4N(C)C(=O)CC[C@]4(C)C3CC[C@@]21C (stereo partly specified) too.
A. 582 nM

Q. Please give the result for CC(C)N(C=O)[C@H]1CCC2C3CC[C@H]4N(C)C(=O)CC[C@]4(C)C3CC[C@@]21C (stereo partly specified) too.
A. > 100 nM

Q. Please give the result for CC(C)CN(C=O)[C@H]1CCC2C3CC[C@H]4N(C)C(=O)CC[C@]4(C)C3CC[C@@]21C (stereo partly specified) too.
A. > 100 nM

Q. Please give the result for CCC(CC)N(C=O)[C@H]1CCC2C3CC[C@H]4N(C)C(=O)CC[C@]4(C)C3CC[C@@]21C (stereo partly specified) too.
A. > 100 nM

Q. Please give the result for CN(C=O)[C@H]1CCC2C3CC[C@H]4N(C)C(=O)CC[C@]4(C)C3CC[C@@]21C (stereo partly specified) too.
A. 1000 nM

Q. Please give the result for CCCCCCCN(C=O)[C@H]1CCC2C3CC[C@H]4N(C)C(=O)CC[C@]4(C)C3CC[C@@]21C (stereo partly specified) too.
A. 14 nM

Q. Please give the result for CN1C(=O)CC[C@]2(C)C3CC[C@@]4(C)C(CC[C@@H]4N(C=O)Cc4ccccc4)C3CC[C@@H]12 (stereo partly specified) too.
A. > 100 nM

Q. Please give the result for `CCN(CC)C(=O)[C@H]1CC[C@H]2[C@@H]3CC[C@H]4N(C)C(=O)CC[C@]4(C)[C@H]3CC[C@]12C` too.
A. 7.48 nM

###

biological target: 3-oxo-5-alpha-steroid 4-dehydrogenase 1 (Homo sapiens); assay: In vitro inhibition of human steroid 5-alpha-reductase type I in Du-145 cells
Sequence (P18405 whole entry): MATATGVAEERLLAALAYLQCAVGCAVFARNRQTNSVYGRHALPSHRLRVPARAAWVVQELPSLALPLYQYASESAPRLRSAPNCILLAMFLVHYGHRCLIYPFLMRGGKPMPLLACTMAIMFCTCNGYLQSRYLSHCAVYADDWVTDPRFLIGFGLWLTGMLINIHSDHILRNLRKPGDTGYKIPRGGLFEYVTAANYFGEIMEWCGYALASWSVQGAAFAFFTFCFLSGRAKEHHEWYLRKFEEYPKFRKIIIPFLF
measured.metric: IC50 (nM)
Provide the reading as a plain figure in nM.

Q. Item under review: CC(C)C(=O)N(c1ccccc1)[C@H]1CCC2C3CC[C@H]4N(C)C(=O)CC[C@]4(C)C3CC[C@@]21C (stereo partly drawn) . Reported IC50?
A. 10.5

Q. Please give the result for CCCCCN(C(=O)CCCC)[C@H]1CCC2C3CC[C@H]4N(C)C(=O)CC[C@]4(C)C3CC[C@@]21C (stereo partly drawn) too.
A. 1.77

Q. Please give the result for CCCCN(C=O)[C@H]1CCC2C3CC[C@H]4N(C)C(=O)CC[C@]4(C)C3CC[C@@]21C (stereo partly drawn) too.
A. 3.05

Q. Please give the result for CCCCCN(C(=O)CCC)[C@H]1CCC2C3CC[C@H]4N(C)C(=O)CC[C@]4(C)C3CC[C@@]21C (stereo partly drawn) too.
A. 3.31

Reference source: ChEMBL document CHEMBL1128284
